studyTarget: Protein translocase subunit SecA (Escherichia coli (strain K12)) (UniProt P10408)
Sequence (P10408 whole entry): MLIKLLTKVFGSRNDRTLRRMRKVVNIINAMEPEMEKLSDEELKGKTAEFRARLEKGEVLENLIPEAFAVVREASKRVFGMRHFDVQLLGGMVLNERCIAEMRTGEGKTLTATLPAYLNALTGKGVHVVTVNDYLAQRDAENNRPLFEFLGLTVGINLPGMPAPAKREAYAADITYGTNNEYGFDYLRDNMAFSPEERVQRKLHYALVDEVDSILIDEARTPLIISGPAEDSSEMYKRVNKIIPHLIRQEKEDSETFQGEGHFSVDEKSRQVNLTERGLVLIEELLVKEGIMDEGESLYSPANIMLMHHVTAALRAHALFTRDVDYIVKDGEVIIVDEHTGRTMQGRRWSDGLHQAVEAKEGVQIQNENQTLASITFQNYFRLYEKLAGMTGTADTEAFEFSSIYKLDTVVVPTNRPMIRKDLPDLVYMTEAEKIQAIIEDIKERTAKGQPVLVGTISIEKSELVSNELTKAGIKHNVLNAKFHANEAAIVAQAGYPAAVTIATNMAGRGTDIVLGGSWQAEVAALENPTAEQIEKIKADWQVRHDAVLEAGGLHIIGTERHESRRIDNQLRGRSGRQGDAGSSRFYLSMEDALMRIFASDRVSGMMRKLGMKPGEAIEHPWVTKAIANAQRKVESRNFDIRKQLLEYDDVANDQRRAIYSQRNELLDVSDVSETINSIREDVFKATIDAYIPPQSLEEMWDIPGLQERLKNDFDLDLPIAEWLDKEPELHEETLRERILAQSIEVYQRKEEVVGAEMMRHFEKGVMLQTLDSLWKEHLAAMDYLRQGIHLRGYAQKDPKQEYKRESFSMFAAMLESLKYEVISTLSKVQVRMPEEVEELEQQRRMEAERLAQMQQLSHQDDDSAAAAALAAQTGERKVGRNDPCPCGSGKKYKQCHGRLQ
protocolText: Assay to Identify E. coli SecA ATPase Inhibitors
Type: functional
Parameters: scale not given: direction of the effect not stated beside the values
measurementConditions: 30 µM
Measured potencies and affinities stand elsewhere.
property: Percent Effect (%)
Your answer should be a plain number; it is taken to be in %.

## Input Percent Effect of CC(C)N(C)C(=O)C1=NOC2(CCN(C(=O)c3ccccn3)C2)C1 (configuration not stated) on Protein translocase subunit SecA (Escherichia coli (strain K12)) (UniProt P10408)?
## Output 3.88

## Input Percent Effect of CN(C)C(=O)C1CN(Cc2ccccc2)CCN(S(C)(=O)=O)C1 (configuration not stated) on Protein translocase subunit SecA (Escherichia coli (strain K12)) (UniProt P10408)?
## Output -5.51

## Input Percent Effect of `COc1ccc(CNCCc2cc(F)cc3c2OCOC3)cc1O` on Protein translocase subunit SecA (Escherichia coli (strain K12)) (UniProt P10408)?
## Output -5.67

## Input Percent Effect of `CN1CCN(c2cc(CCNC(=O)C3CCC3)nc(C3CC3)n2)CC1` on Protein translocase subunit SecA (Escherichia coli (strain K12)) (UniProt P10408)?
## Output -1.04

## Input Percent Effect of `COc1cc(CNCc2c(C(C)C)nn(C)c2N(C)C)ccn1` on Protein translocase subunit SecA (Escherichia coli (strain K12)) (UniProt P10408)?
## Output -0.0523

## Input Percent Effect of `Cc1ncnc2c1CCN(Cc1ccccn1)CC2` on Protein translocase subunit SecA (Escherichia coli (strain K12)) (UniProt P10408)?
## Output -2.86

## Input Percent Effect of `CC(C)CN1CCCn2nc(CNC(=O)CCN)cc2C1` on Protein translocase subunit SecA (Escherichia coli (strain K12)) (UniProt P10408)?
## Output -6.28

## Input Percent Effect of CCn1ccnc1CNCC1CCCN1c1cccnn1 (configuration not stated) on Protein translocase subunit SecA (Escherichia coli (strain K12)) (UniProt P10408)?
## Output -4.44

## Input Percent Effect of O=C(NCc1cc(O)ncn1)C1CCOc2ccccc2C1 (configuration not stated) on Protein translocase subunit SecA (Escherichia coli (strain K12)) (UniProt P10408)?
## Output -6.27

## Input Percent Effect of CCOCC1CN(Cc2cnn(C)c2)Cc2nn(C)cc21 (configuration not stated) on Protein translocase subunit SecA (Escherichia coli (strain K12)) (UniProt P10408)?
## Output 0.939

## Input Percent Effect of `CC(C)Cc1nc(OCC(N)=O)c(C#N)c2c1CCC2` on Protein translocase subunit SecA (Escherichia coli (strain K12)) (UniProt P10408)?
## Output -2.5

## Input Percent Effect of Cc1ccc(C(O)CNCCn2cccn2)cc1C (configuration not stated) on Protein translocase subunit SecA (Escherichia coli (strain K12)) (UniProt P10408)?
## Output -4.43

----------
studyTarget: Ubiquitin-activating enzyme e1, putative (Leishmania donovani (strain BPK282A1)) (UniProt E9BSI1)
Sequence (whole entry): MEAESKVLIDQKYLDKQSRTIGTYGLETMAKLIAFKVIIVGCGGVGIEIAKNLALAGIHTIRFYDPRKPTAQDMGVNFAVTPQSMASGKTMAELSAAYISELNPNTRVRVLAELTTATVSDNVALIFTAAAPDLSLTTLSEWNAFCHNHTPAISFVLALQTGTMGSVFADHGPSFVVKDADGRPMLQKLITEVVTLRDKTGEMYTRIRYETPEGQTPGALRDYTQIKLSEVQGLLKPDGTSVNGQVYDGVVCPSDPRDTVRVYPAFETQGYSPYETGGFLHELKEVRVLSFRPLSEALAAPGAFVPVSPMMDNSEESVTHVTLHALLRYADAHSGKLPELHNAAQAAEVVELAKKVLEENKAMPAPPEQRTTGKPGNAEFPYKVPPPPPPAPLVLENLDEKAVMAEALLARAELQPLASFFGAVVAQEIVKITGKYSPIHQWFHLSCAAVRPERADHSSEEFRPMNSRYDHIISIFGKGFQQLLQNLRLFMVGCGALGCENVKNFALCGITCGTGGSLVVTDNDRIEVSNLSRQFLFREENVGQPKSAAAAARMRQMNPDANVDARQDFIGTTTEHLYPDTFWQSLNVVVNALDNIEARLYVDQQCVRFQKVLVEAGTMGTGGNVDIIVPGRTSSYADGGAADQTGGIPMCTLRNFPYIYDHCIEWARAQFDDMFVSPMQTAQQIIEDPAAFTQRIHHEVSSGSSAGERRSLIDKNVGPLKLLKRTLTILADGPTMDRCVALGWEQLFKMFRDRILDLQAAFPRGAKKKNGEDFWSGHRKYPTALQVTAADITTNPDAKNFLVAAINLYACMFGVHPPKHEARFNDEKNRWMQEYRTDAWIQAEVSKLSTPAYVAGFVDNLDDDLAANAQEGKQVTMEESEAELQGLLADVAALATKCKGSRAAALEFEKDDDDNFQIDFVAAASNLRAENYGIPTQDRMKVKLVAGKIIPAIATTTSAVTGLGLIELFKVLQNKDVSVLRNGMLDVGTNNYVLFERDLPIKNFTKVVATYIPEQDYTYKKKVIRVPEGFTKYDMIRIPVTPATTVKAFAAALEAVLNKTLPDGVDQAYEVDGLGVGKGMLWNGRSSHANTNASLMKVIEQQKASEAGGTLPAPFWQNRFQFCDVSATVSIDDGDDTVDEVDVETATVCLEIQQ
protocolText: Leishmania donovani Ubiquitin Activating Enzyme (LdE1)
Format: functional
Set-up: scale not given: direction of the effect not stated beside the values
measurementConditions: 30 µM
Potency and affinity values are given separately.
I'd appreciate it if you could supply Percent Effect values for the items below.
Your answer should be a plain number; it is taken to be in %.

## Input State the recorded Percent Effect for this entry: `Cc1ccc(N2CCCN(C(=O)C3(C#N)CCCCC3)CC2)nn1`
## Output 5.26

## Input State the recorded Percent Effect for this entry: `Cc1nccc(-c2cccc(NCC(=O)N3CCCCCCC3)c2)n1`
## Output -5.26

## Input State the recorded Percent Effect for this entry: `COCC(=O)N1CCC(c2cc(C(F)(F)F)n3ccnc3n2)CC1`
## Output 17.3

## Input State the recorded Percent Effect for this entry: CCC(OC)C(=O)N1CCc2nc(NC)nc(C(=O)N3CCCC3)c2C1 (stereo unspecified)
## Output 2.74

## Input State the recorded Percent Effect for this entry: `CN(C)C(=O)N1C[C@@H]2CC[C@H](C1)N(C(=O)CCCn1cncn1)C2`
## Output 2.7

## Input State the recorded Percent Effect for this entry: `COC[C@H]1CCC[C@]12CN(CCc1ccccc1)CCO2`
## Output 12

----------
I'd appreciate it if you could supply Percent Effect values for the items below.
studyTarget: Sialic acid-binding Ig-like lectin 9 (Homo sapiens) (UniProt Q9Y336)
Sequence (Q9Y336 whole entry): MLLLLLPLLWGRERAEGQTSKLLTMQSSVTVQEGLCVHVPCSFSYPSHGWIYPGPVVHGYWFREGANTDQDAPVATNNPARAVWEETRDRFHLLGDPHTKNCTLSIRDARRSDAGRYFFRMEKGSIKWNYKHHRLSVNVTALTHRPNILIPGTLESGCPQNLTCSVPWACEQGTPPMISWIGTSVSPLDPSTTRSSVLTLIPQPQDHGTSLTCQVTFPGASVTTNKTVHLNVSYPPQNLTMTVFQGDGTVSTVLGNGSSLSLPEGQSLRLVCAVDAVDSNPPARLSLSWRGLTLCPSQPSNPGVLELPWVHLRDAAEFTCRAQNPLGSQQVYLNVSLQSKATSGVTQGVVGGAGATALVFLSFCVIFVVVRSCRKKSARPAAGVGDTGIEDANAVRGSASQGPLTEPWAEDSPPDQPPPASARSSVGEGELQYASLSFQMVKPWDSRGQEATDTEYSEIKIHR
protocolText: Hs-Siglec9 ALPHAscreen SOP 20170721
Parameters: scale not given: direction of the effect not stated beside the values
measurementConditions: 10 µM
Your answer should be a plain number; it is taken to be in %.

## Input State the recorded Percent Effect for this entry: O=C(c1cc[nH]n1)N1CCCC(c2cccc(-n3ccnc3)n2)C1 (stereo unspecified)
## Output 2.15

## Input State the recorded Percent Effect for this entry: Cc1nn(C)c(Cl)c1C(=O)NCC(c1ccsc1)N(C)C (stereo unspecified)
## Output -7.25

## Input State the recorded Percent Effect for this entry: Cn1cc(C2CCCN2Cc2csc(-c3ccsc3)n2)cn1 (stereo unspecified)
## Output 3.12

## Input State the recorded Percent Effect for this entry: CC(O)CN1CCC(CNCc2cccc(C(N)=O)c2)CC1 (stereo unspecified)
## Output 11

## Input State the recorded Percent Effect for this entry: `CC(C)CN1C[C@H]2CCN(c3ncccn3)CC[C@H]2S1(=O)=O`
## Output 12.2

## Input State the recorded Percent Effect for this entry: CC(C)n1ccnc1C1CCN(C(=O)C2COc3ccccc3O2)CC1 (stereo unspecified)
## Output 10.4

## Input State the recorded Percent Effect for this entry: `CC(C)Cc1noc(CN2CCN(C(=O)c3ccco3)CC2)n1`
## Output 1.08

## Input State the recorded Percent Effect for this entry: `Cc1cccc(C(=O)NCc2ccc(N3CCCCC3)nc2)n1`
## Output 4.23

## Input State the recorded Percent Effect for this entry: Nc1nc(CCC(=O)N2CCOC(CC3CCCCC3)C2)cs1 (stereo unspecified)
## Output 6.25

## Input State the recorded Percent Effect for this entry: `C[C@@H]1CN(C2(C(=O)N3CCCCCC3)Cc3ccccc3C2)C[C@H](C)O1`
## Output 11

## Input State the recorded Percent Effect for this entry: `CC(C)c1cc(NC(=O)CN2CCc3cncnc3C2)on1`
## Output 3.99

----------
studyTarget: Protein translocase subunit SecA (Escherichia coli (strain K12))
protocolText: Assay to Identify E. coli SecA ATPase Inhibitors
Assay type: functional
Parameters: scale not given: direction of the effect not stated beside the values
measurementConditions: 30 µM
Entries with a potency or affinity are not part of this list.
property: Percent Effect (%)
Your answer should be a plain number; it is taken to be in %.

## Input State the recorded Percent Effect for this entry: `Cc1oc(-c2ccsc2)nc1CC(=O)NCCS(C)(=O)=O`
## Output -3.85

## Input State the recorded Percent Effect for this entry: `O=C1NCC[C@]12CN(Cc1ccoc1)C[C@H]2c1ccccc1`
## Output 4.22

## Input State the recorded Percent Effect for this entry: CN(C)Cc1ccc(C2CCCCN2C(=O)c2cccc(CO)n2)cc1 (stereo unspecified)
## Output -5.85

## Input State the recorded Percent Effect for this entry: `c1cnc2c(c1)cc(C1CCOCC1)n2CCN1CCOCC1`
## Output -3.29

## Input State the recorded Percent Effect for this entry: `CN1C(=O)C[C@@H]2[C@@H]1CCN2C(=O)c1ccc[nH]1`
## Output -5.79

## Input State the recorded Percent Effect for this entry: `Cc1cc(C)n(C2CN(CC(=O)N(C)Cc3ccc(C)o3)C2)n1`
## Output -4.24

## Input State the recorded Percent Effect for this entry: `Cn1ccc(C(=O)NCc2cccc(CN3CCCC3)c2)cc1=O`
## Output -1.76

## Input State the recorded Percent Effect for this entry: `Cc1ccc2cc(C3(O)CCN(C(=O)CN4CCCC4)CC3)ccc2n1`
## Output -2.77

## Input State the recorded Percent Effect for this entry: O=S(=O)(CCCN1CCCC1Cn1cccn1)c1ccccc1 (stereo unspecified)
## Output -5.34

## Input State the recorded Percent Effect for this entry: `CN1CCN(C(=O)c2ccc(=O)n(C)c2)Cc2ccccc21`
## Output -3.95

## Input State the recorded Percent Effect for this entry: `c1nc2c(c(C3CC3)n1)CCN(Cc1ccoc1)CC2`
## Output 0.0846
